System: TERT-RPE1
Procedure Text: Here: values are normalized to the negative (DMSO; defined as 0% autophagy induction) and positive (250nM Torin1; mTOR inhibitor; defined as maximal inducer of autophagy = 100%) control compounds and represented as % of autophagy induction. […] The impact of autophagy induction on cells is complex and depends on the affected target. As such, the magnitude of a phenotype may not be equally mirrored in the %-value of autophagy induction and vice versa. The dynamics of the induction may indicate the mode of activation: e.g. activation via phosphorylation or a signaling cascade may occur fast, while activation via transcription factors may take considerably longer. […] Of note, treatment concentrations may be sub-optimal for specific compounds, leading to false negative annotations.
Assay type: functional, Homo sapiens
Particulars: Compound Concentration 1 uM, Timepoint 60 hours, Culturing Media DMEM/F12 (1:1), 1 % Penicillin/Streptomycin, 10% Fetal bovin serum Add-On: No, Screening Media Control DMEM/F12 (1:1), Screening Media Samples DMEM/F12 (1:1)
Observable: autophagy induction (%)
Numbers only, in %.

Past entries and their recorded results:
In [3]: df
Out[3]:
                                   compound  measurement
0  CCCCCCCN(CCc1ccc(SC(C)(C)C(=O)O)cc1)C(=O)Nc1ccc(F)cc1F       -5.756
1  CCOC(=O)C1Cc2ccccc2CN1C(=O)c1ccc(SC)s1 (centres undefined)     -16.4137
2  COc1cc2c(cc1CC=C(C)C)C(=O)C[C@@H](c1ccc(O)cc1)O2         1.68

Shift focus to the following entry.
Tell me reported autophagy induction for `Clc1ccc(-c2nc3sccn3c2/C=N/OCc2ccc(Cl)c(Cl)c2)cc1` , tested with TERT-RPE1.
-19.9955
